Test system: HepG2
Assay: Cytotoxicity against human HepG2 cells after 72 hrs by MTT assay
Assay type: functional, cell-based
Conditions: Homo sapiens, HepG2, 72 h; read-out: EC50
This listing pairs compounds with measured EC50.
// note: answer is a bare numeric in µM

// below: answered compounds
1. CCS[C@@H]1[C@H](SCC)[C@@H](CO)O[C@H]1n1cc(-c2ccc(OC)cc2)nn1 : 11
2. CCS[C@@H]1[C@H](SCC)[C@@H](CO)O[C@H]1n1ccc(N)nc1=O : 116
3. CCS[C@@H]1[C@H](SCC)[C@@H](CO)O[C@H]1n1ccc(=O)[nH]c1=O : 74.7
4. CCS[C@@H]1[C@H](SCC)[C@@H](CO)O[C@H]1n1cc(-c2ccccc2)nn1 : 9.6
5. O=c1[nH]c(=O)n([C@H]2C[C@H](O)[C@@H](CO)O2)cc1F : 18.8

Would you kindly share the measured EC50 for CCS[C@@H]1[C@H](SCC)[C@@H](CO)O[C@H]1n1cc(-c2ccc(F)cc2)nn1 ?
9.62
